molecular target: EGFR L858R/C797S (BaF3 LC cells) (Homo sapiens, UniProt P00533, C797S/L858R); construct: expressed in transfected cells; host or cells: BaF3; assay: EGFR degradation HTRF assay, BaF3 LC cells; type: cell-based; settings: BaF3 LC, 16h treatment; read-out: BaF3 LC DC50
Sequence (P00533 25-1210 C797S/L858R): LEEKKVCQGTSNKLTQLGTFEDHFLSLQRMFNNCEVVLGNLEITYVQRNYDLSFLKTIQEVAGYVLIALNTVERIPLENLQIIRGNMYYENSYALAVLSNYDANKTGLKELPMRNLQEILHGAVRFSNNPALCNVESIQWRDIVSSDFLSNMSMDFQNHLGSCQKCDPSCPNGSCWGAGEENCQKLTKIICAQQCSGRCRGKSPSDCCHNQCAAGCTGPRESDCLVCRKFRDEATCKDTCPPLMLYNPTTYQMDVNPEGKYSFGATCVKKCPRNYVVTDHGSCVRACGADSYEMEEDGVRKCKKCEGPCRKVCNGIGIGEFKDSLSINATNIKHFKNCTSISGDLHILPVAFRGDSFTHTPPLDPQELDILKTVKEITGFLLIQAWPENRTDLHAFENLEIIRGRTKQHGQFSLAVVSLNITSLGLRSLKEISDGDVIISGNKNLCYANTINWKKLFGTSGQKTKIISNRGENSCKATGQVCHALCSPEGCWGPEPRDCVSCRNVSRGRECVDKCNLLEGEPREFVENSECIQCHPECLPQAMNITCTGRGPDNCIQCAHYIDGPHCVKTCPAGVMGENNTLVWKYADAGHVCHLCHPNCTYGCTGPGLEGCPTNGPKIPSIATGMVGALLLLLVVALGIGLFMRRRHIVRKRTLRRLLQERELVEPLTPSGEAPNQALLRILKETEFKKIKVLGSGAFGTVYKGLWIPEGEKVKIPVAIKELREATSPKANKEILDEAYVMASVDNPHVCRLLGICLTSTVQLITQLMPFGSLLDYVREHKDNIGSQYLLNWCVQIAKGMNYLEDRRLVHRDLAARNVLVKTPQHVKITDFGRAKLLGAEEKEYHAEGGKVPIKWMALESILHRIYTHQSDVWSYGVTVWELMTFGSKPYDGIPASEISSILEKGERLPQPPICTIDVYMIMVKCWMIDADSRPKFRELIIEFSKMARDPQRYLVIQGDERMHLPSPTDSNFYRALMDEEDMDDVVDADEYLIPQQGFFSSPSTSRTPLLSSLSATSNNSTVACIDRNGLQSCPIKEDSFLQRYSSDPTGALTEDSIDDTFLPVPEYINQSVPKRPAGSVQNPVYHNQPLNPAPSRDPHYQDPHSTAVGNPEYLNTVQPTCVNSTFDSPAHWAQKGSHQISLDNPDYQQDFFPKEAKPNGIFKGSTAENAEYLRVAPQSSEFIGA
recorded metric: DC50 (nM)
Unit nM implied. Number only.

Completed entries (count: 8):
Dear colleague, I am looking for the recorded DC50 of the following compound: CCOc1cc(N2CCC(N3CCN(CCc4cc(F)c(C5CCC(=O)NC5=O)c(F)c4)CC3)CC2)c(CC)cc1Nc1ncc(Br)c(Nc2ccc3nc(C)ccc3c2P(C)(C)=O)n1 (stereo not shown) 50.8

Dear colleague, I am looking for the recorded DC50 of the following compound: CCc1cc(Nc2ncc(Br)c(Nc3ccc4nc(C)ccc4c3P(C)(C)=O)n2)c(OC)cc1N1CCC(N2CCN(CCc3ccc4c(c3)oc(=O)n4C3CCC(=O)NC3=O)CC2)CC1 (stereo not shown) 2.41

Dear colleague, I am looking for the recorded DC50 of the following compound: CCOc1cc(N2CCC(N3CCN(CC4CN(c5cccc6c5oc(=O)n6C5CCC(=O)NC5=O)C4)CC3)CC2)c(CC)cc1Nc1ncc(Br)c(Nc2ccc3nc(CC)ccc3c2P(C)(C)=O)n1 (stereo not shown) 5.19

Dear colleague, I am looking for the recorded DC50 of the following compound: CCOc1cc(N2CCC(N3CCN(CCc4cccc5c4C(C)(C)C(=O)N5C4CCC(=O)NC4=O)CC3)CC2)c(CC)cc1Nc1ncc(Br)c(Nc2ccc3nc(CC)ccc3c2P(C)(C)=O)n1 (stereo not shown) 3.8

Dear colleague, I am looking for the recorded DC50 of the following compound: CCOc1cc(N2CCC(N3CCN(CCc4cc5oc(=O)n(C6CCC(=O)NC6=O)c5cc4F)CC3)CC2)c(CC)cc1Nc1ncc(Br)c(Nc2ccc3nc(CC)ccc3c2P(C)(C)=O)n1 (stereo not shown) 4.28

Dear colleague, I am looking for the recorded DC50 of the following compound: CCc1ccc2c(P(C)(C)=O)c(Nc3nc(Nc4cc(CC)c(N5CCC(N6CCN(CCc7ccc8c(c7)oc(=O)n8C7CCC(=O)NC7=O)CC6)CC5)cc4OC)ncc3Br)ccc2n1 (stereo not shown) 2.34

Dear colleague, I am looking for the recorded DC50 of the following compound: CCc1ccc2c(P(C)(C)=O)c(Nc3nc(Nc4cc(C)c(N5CCC(N6CCN(CCc7cccc8c7n(C)c(=O)n8C7CCC(=O)NC7=O)CC6)CC5)cc4OC4CC4)ncc3Br)ccc2n1 (stereo not shown) 4.9

Dear colleague, I am looking for the recorded DC50 of the following compound: CCOc1cc(N2CCC(N3CCN(CC4CN(c5cc(F)c([C@H]6CCC(=O)NC6=O)c(F)c5)C4)CC3)CC2)c(CC)cc1Nc1ncc(Br)c(Nc2ccc3c(=O)n(CC)ncc3c2P(C)(C)=O)n1 46.5

Continuing:
Dear colleague, I am looking for the recorded DC50 of the following compound: CCOc1cc(N2CCC(N3CCN(CCc4c(F)ccc5c4n(CC)c(=O)n5C4CCC(=O)NC4=O)CC3)CC2)c(CC)cc1Nc1ncc(Br)c(Nc2ccc3c(=O)n(CC)ncc3c2P(C)(C)=O)n1 (stereo not shown) 26.9

Dear colleague, I am looking for the recorded DC50 of the following compound: CCc1cc(Nc2ncc(Br)c(Nc3ccc4nc(C)ccc4c3P(C)(C)=O)n2)c(OC)cc1N1CCC(N2CCN(CCc3cccc4c3C(C)(C)C(=O)N4C3CCC(=O)NC3=O)CC2)CC1 (stereo not shown) 3.51

Dear colleague, I am looking for the recorded DC50 of the following compound: CCOc1cc(N2CCC(N3CCN(CC4CN(c5cc(F)cc6c5oc(=O)n6C5CCC(=O)NC5=O)C4)CC3)CC2)c(CC)cc1Nc1ncc(Br)c(Nc2ccc3nc(CC)ccc3c2P(C)(C)=O)n1 (stereo not shown) 20.3

Dear colleague, I am looking for the recorded DC50 of the following compound: CCc1ccc2c(P(C)(C)=O)c(Nc3nc(Nc4cc(CC)c(N5CCC(N6CCN(CCc7cccc8c7n(C)c(=O)n8C7CCC(=O)NC7=O)CC6)CC5)cc4OC)ncc3Br)ccc2n1 (stereo not shown) 1.83

Dear colleague, I am looking for the recorded DC50 of the following compound: CCc1ncc2c(P(C)(C)=O)c(Nc3nc(Nc4cc(CC)c(N5CCC(N6CCN(C(=O)[C@@H]7CCN(c8cc(F)c([C@H]9CCC(=O)NC9=O)c(F)c8)C7)CC6)CC5)cc4OC)ncc3Br)ccc2n1 1.59

Dear colleague, I am looking for the recorded DC50 of the following compound: CCOc1cc(N2CCC(N3CCN(C(=O)[C@@H]4CCN(c5cc(F)c([C@H]6CCC(=O)NC6=O)c(F)c5)C4)CC3)CC2)c(CC)cc1Nc1ncc(Br)c(Nc2ccc3nc(C)c(F)cc3c2P(C)(C)=O)n1 53.8

Dear colleague, I am looking for the recorded DC50 of the following compound: CCOc1cc(N2CCC(N3CCN(CCc4cccc5c4oc(=O)n5C4CCC(=O)NC4=O)CC3)CC2)c(CC)cc1Nc1ncc(Br)c(Nc2cc(F)c3nc(CC)ccc3c2P(C)(C)=O)n1 (stereo not shown) 24.3

Dear colleague, I am looking for the recorded DC50 of the following compound: CCOc1cc(N2CCC(N3CCN(CCc4cc(F)c([C@H]5CCC(=O)NC5=O)c(F)c4)CC3)CC2)c(CC)cc1Nc1ncc(Br)c(Nc2cc(F)c3nc(C)ccc3c2P(C)(C)=O)n1 10.2

----------
target: EGFR L858R/T790M (H1975-clone #36, homozygous) (Homo sapiens, UniProt P00533, L858R/T790M); construct: designed to specifically target WT EGFR but preserve the L858R/T790M copy; host or cells: H1975-clone #36; test: EGFR degradation HTRF assay, H1975-clone #36 cells; format: cell-based; settings: NCI-H1975; H1975 #36, 16h treatment, maximum percentage of degradation
Sequence (P00533 25-1210 T790M/L858R): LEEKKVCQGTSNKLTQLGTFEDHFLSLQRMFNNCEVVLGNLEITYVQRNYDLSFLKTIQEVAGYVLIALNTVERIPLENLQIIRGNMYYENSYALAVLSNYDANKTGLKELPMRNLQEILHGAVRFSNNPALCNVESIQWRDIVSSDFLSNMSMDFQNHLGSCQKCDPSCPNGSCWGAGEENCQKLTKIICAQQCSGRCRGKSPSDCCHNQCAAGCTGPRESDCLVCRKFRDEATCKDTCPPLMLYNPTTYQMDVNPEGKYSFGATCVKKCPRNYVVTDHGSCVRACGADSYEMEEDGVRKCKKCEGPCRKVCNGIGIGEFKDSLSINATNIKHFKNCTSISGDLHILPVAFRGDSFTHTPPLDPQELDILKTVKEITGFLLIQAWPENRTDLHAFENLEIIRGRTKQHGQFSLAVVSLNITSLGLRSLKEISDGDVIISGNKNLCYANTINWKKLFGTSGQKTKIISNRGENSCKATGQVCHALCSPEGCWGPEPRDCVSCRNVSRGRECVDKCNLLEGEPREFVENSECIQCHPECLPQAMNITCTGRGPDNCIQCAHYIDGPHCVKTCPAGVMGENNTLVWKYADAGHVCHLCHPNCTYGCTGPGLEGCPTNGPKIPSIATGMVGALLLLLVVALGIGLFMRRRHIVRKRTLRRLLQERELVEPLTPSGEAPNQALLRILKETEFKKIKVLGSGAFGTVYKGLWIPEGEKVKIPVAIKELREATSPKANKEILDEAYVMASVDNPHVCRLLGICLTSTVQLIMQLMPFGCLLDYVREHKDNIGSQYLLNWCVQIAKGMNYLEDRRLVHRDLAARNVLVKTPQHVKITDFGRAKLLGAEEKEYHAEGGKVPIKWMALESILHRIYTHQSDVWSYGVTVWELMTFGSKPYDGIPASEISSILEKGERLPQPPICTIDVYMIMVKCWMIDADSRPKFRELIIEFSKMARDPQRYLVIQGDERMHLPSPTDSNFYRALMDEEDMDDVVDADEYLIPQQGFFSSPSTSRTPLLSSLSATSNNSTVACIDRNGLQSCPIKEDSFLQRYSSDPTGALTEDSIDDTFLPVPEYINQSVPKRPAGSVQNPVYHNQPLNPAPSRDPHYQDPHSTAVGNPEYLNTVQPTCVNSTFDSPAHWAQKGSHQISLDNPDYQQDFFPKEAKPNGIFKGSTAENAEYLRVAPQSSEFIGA
recorded metric: Dmax (%)
Unit % implied. Number only.

Completed entries (count: 3):
Dear colleague, I am looking for the recorded Dmax of the following compound: CCc1cc(Nc2ncc(Br)c(Nc3ccc4nccnc4c3P(C)(C)=O)n2)c(OC)cc1N1CCC(N2CCN(CCc3cc(F)c(C4CCC(=O)NC4=O)c(F)c3)CC2)CC1 (stereo not shown) 97.4

Dear colleague, I am looking for the recorded Dmax of the following compound: COc1cc(N2CCN(CC3CCN(c4ccc(N5CCC(=O)NC5=O)c(F)c4)CC3)CC2)c(C)cc1Nc1ncc(Br)c(Nc2ccc3nccnc3c2P(C)(C)=O)n1 7.3

Dear colleague, I am looking for the recorded Dmax of the following compound: COc1cc(N2CCC(N(C)CC3CCN(c4ccc(N5CCC(=O)NC5=O)cc4)CC3)CC2)c(C)cc1Nc1ncc(Br)c(Nc2ccc3nccnc3c2P(C)(C)=O)n1 18.6

We now examine a further compound.
Dear colleague, I am looking for the recorded Dmax of the following compound: CCc1cc(Nc2ncc(Br)c(Nc3ccc4nccnc4c3P(C)(C)=O)n2)c(OC)cc1N1CCC(N2CCN(C(=O)CCC3CN(c4ccc5c(c4)C(=O)N(C4CCC(=O)NC4=O)C5=O)C3)CC2)CC1 (stereo not shown) 77.4

----------
biological target: EGFR L858R/T790M (H1975-clone #36, homozygous) (Homo sapiens, UniProt P00533, L858R/T790M); construct: designed to specifically target WT EGFR but preserve the L858R/T790M copy; host or cells: H1975-clone #36; experiment: EGFR degradation HTRF assay, H1975-clone #36 cells; assay type: cell-based; conditions: H1975 #36, 16h treatment
DC50 values for the compounds below.
Unit nM implied. Number only.

Dear colleague, I am looking for the recorded DC50 of the following compound: CCc1cc(Nc2ncc(Br)c(Nc3ccc4nccnc4c3P(C)(C)=O)n2)c(OC)cc1N1CCC(N2CCN(CCc3ccc(C4CCC(=O)NC4=O)c(Cl)c3)CC2)CC1 (stereo not shown) 7.44

Dear colleague, I am looking for the recorded DC50 of the following compound: COc1cc(N2CCC(N3CCN(CCc4ccc(C5CCC(=O)NC5=O)cc4)CC3)CC2)ccc1Nc1ncc(Cl)c(Nc2ccccc2P(C)(C)=O)n1 (stereo not shown) 5.89

Dear colleague, I am looking for the recorded DC50 of the following compound: COc1cc(N2CCC(N3CCN(C(=O)CCN4CCC(c5ccc(C6CCC(=O)NC6=O)cc5)CC4)CC3)CC2)ccc1Nc1ncc(Cl)c(Nc2ccccc2N(C)S(C)(=O)=O)n1 (stereo not shown) 12.4

Dear colleague, I am looking for the recorded DC50 of the following compound: CCc1cc(Nc2ncc(Br)c(Nc3ccc4nccnc4c3P(C)(C)=O)n2)c(OC)cc1N1CCC(N2CCN(CCc3ccc(C4CCC(=O)NC4=O)c(F)c3F)CC2)CC1 (stereo not shown) 15.9

Dear colleague, I am looking for the recorded DC50 of the following compound: CCc1cc(Nc2ncc(Br)c(Nc3ccc4nccnc4c3P(C)(C)=O)n2)c(OC)cc1N1CCC(N2CCN(CCc3cc(F)c(C4CCC(=O)NC4=O)c(F)c3)CC2)CC1 (stereo not shown) 5.41

Dear colleague, I am looking for the recorded DC50 of the following compound: CCc1cc(Nc2ncc(Br)c(Nc3ccc4nccnc4c3P(C)(C)=O)n2)c(OC)cc1N1CCC(N2CCN(CC3CCN(c4ccc5c(c4)C(=O)N(C4CCC(=O)NC4=O)C5=O)CC3)CC2)CC1 (stereo not shown) 10.5

Dear colleague, I am looking for the recorded DC50 of the following compound: COc1cc(N2CCC(N3CCN(C(=O)C[C@H](NC(=O)[C@@H]4C[C@@H](O)CN4C(=O)[C@@H](c4cc(C)no4)C(C)C)c4ccc(-c5scnc5C)cc4)CC3)CC2)ccc1Nc1ncc(Cl)c(Nc2ccccc2P(C)(C)=O)n1 67.4

Dear colleague, I am looking for the recorded DC50 of the following compound: COc1cc(N2CCN(CC3CCN(c4ccc(C5CCC(=O)NC5=O)cc4)CC3)CC2)ccc1Nc1ncc(Cl)c(Nc2ccccc2P(C)(C)=O)n1 (stereo not shown) 12.2
